Reference for the values: patent US8242275B2

# Tested on: MRSA OC3726 (COL)
# Assay Summary: Resistant strains assay (broth microdilution MIC)
# Format: cell-based
# Protocol Conditions: Staphylococcus aureus; MRSA OC3726 (COL); read-out: MIC, Column C
Endpoint Label: MIC (µg/mL)
Entry rule: numbers only, all in µg/mL.

// lookup MIC for O=C1CSc2ccc(C(=O)NC3CCc4nn(-c5cccc6cccnc56)cc4C3)cc2N1 (centres unmarked) [Example 31]
0.5

Try this molecule next: COc1ccc2nccc(-n3cc4c(n3)CCC(NCc3ccc5c(c3)OCCO5)C4)c2c1 (centres unmarked) [Example 50]
1

Try this molecule next: COc1ccc2nccc(-n3cc4c(n3)CCC(NCc3ccc5c(c3)NC(=O)CS5)C4)c2n1 (centres unmarked) [Example 41]
1

Try this molecule next: COc1ccc2nccc(-n3cc4c(n3)CCC(NCc3ccc5c(c3)NC(=O)CS5)C4)c2c1 (centres unmarked) [Example 52]
0.5

Try this molecule next: CCn1cc(C(=O)O)c(=O)c2cc(F)c(N3CCNCC3)cc21 [Norfloxacin, reference compound]
2

Try this molecule next: COc1ccc2nccc(-n3cc4c(n3)CCC(NC/C=C/c3ccccc3)C4)c2c1 (centres unmarked) [Example 55]
1

Try this molecule next: C[C@@H]1CN(c2c(F)c(N)c3c(=O)c(C(=O)O)cn(C4CC4)c3c2F)C[C@H](C)N1 [Sparfloxacin, reference compound]
0.125

Try this molecule next: COc1ccc2nccc(-n3cc4c(n3)CCC(NC(=O)c3ccc5c(c3)NC(=O)CS5)C4)c2n1 (centres unmarked) [Example 4]
0.062

Try this molecule next: COc1ccc2nccc(-n3cc4c(n3)CCC(NC(=O)c3cc5c(cc3F)SCC(=O)N5)C4)c2c1 (centres unmarked) [Example 18]
0.062

Try this molecule next: COc1ccc2nccc(-n3cc4c(n3)CCC(NC/C=C/c3ccccc3)C4)c2n1 (centres unmarked) [Example 46]
0.25

Try this molecule next: COc1ccc2nccc(-n3cc4c(n3)CCC(NC(=O)c3cc5c(cc3F)SCC(=O)N5)C4)c2n1 (centres unmarked) [Example 5]
0.062
